- run.description: solvent given as SMILES
- assay.conditions: in CC#N

| molecule | emission maximum |
| --- | --- |
| CN(C)c1ccc(/C=C/c2ccnc(/C=C/c3ccc(N(C)C)cc3)n2)cc1 | 513 nm |
| Cc1ccc(-c2cc(-c3ccc(N(C)C)cc3)c3c(N)nc(N4CCCC4)c(C#N)c3n2)cc1 | 514 nm |
| Cc1c2ccc3c(C)[n+](C)ccc3c2cc[n+]1C | 408 nm |
| CC(=O)c1cc(=O)n(C)c2cc(-c3ccc(N(C)C)cc3)sc12 | 504 nm |
| O=C1c2ccccc2NC(c2ccccc2)N1Cc1ccccc1 (stereo unspecified) | 407 nm |
| CC1(C)Nc2ccccc2-c2[nH]c3ccccc3c(=O)c21 | 507 nm |

* * *

- run.description: solvent given as SMILES
- assay.conditions: in c1ccccc1
endpoint: emission maximum

| structure.string | endpoint.value |
| --- | --- |
| CC(=O)c1ccc(-c2nc3ccc(N(C)C)c(Br)c3s2)cc1 | 472.87 nm |
| CCCCN(CCCC)c1ccc2c#cc3cc4c#cc5ccc(C(F)(F)F)cc5c#cc#cc5cc(N(CCCC)CCCC)ccc5c#cc4cc3c#cc3ccc(C(F)(F)F)cc3c#cc#cc2c1 | 521 nm |
| CCC1=C(C)C(=O)n2c1cc1[nH]c(C(=O)OC(C)(C)C)c(C)c1c2=O | 443 nm |
| O=c1oc2ccccc2nc1-c1ccc(Cl)cc1 | 440 nm |
| CCCCNc1ccc(NCCCC)c2c1C(=O)c1ccccc1C2=O | 667 nm |
| CN(C)c1ccc2nc(-c3ccccc3)c(=O)oc2c1 | 500 nm |

* * *

- run.description: solvent given as SMILES
- assay.conditions: in CCCCO
endpoint: emission maximum (nm)

| molecule | endpoint | endpoint.value |
| --- | --- | --- |
| Cc1n[nH]c2c1C(c1ccc([N+](=O)[O-])cc1)C(C#N)=C(N)O2 (centres undefined) | emission maximum | 410 |
| CCCCNc1ccc(NCCCC)c2c1C(=O)c1ccccc1C2=O | emission maximum | 671 |
| CN(C)c1ccc(/C=C/C(=O)O)cc1 | emission maximum | 439 |
| COCCOCCOCCOc1cc(C=O)c(OCCOCCOCCOC)cc1C=O | emission maximum | 472 |

* * *

Below, each entry is listed alongside its reported emission maximum.
- run.description: solvent given as SMILES
- assay.conditions: in CCOC(C)=O

| molecule | emission maximum |
| --- | --- |
| NS(=O)(=O)c1ccc(N2N=C(c3ccc(O)cc3)CC2c2ccc(Br)cc2)cc1 (stereo not drawn) | 415 nm |
| CN(C)c1ccc(/C=C2\CCCC2=O)cc1 | 448 nm |
| CC1=[N+]2C(=C(c3ccc(Br)cc3)c3ccc(C)n3[B-]2(F)F)C=C1c1cc2n(c1)[B-](F)(F)[N+]1=CC=CC1=C2c1c(C)cc(C)cc1C | 670 nm |
| O=Cc1cc(C=O)c2ccc3c(N4CCCCC4)cc(N4CCCCC4)c4ccc1c2c43 | 587 nm |
| CN1C(=O)/C(=C/c2ccncc2)N=C1/C=C/c1ccccc1 | 544 nm |
| COc1ccc(/C=N/c2cc(C(C)C)c(O)cc2C)cc1 | 407 nm |
| CCn1c(-c2ccc(-c3ccc4c(c3)C3(c5ccccc5-c5ccccc53)c3ccccc3-4)cc2)c(-c2ccc3ccccc3c2)c(-c2ccc3ccccc3c2)c1-c1ccc(-c2ccc3c(c2)C2(c4ccccc4-c4ccccc42)c2ccccc2-3)cc1 | 441 nm |
| COc1cc(N(c2ccccc2)c2ccc(C=C(C#N)C#N)c(OC)c2)ccc1C=C(C#N)C#N | 532 nm |

* * *

- run.description: solvent given as SMILES
- assay.conditions: in C1CCCCC1
The label is yes (1) for emission maximum below 400 nm and no (0) for emission maximum equal to or exceeding 400 nm.

| structure.string | class.label |
| --- | --- |
| CN(C)c1ccc(-c2nc(-c3ccc(N(C)C)cc3)c3ccccc3n2)cc1 | no (0) |
| COc1ccc(C2=C(c3ccc(OC)cc3)C(C)(C)c3cc(-c4ccccc4)ccc32)cc1 | no (0) |
| CN(C)c1ccc(/C=C/c2nc(/C=C/c3ccc(N(C)C)cc3)c3ccccc3n2)cc1 | no (0) |
| CC(C)(C)[Si](C)(C)c1cccc2ccccc12 | yes (1) |
| CN(C)c1ccc(/C=C/c2ccc([N+](=O)[O-])c(O)c2)cc1 | no (0) |

* * *

- run.description: solvent given as SMILES
- assay.conditions: in ClCCl
The label is 1.0 for emission maximum below 600 nm and 0.0 for emission maximum equal to or exceeding 600 nm.

| structure.string | class.label |
| --- | --- |
| Nc1ccc2c(c1)oc(=O)c1c(=O)oc3ccccc3c12 | 1.0 |
| Cc1ccc(C2=C3C=CC(C#Cc4ccccc4)=[N+]3[B-](F)(F)n3c(C#Cc4ccccc4)ccc32)cc1 | 0.0 |
| C(S/C=C/c1ccc(-c2ccc(/C=C/SC=C3CCCCC3)cc2)cc1)=C1CCCCC1 | 1.0 |
| c1ccc2c(-c3ccc4sc5ccc(-c6c7ccccc7cc7ccccc67)cc5c4c3)c3ccccc3cc2c1 | 1.0 |
| C(=C\c1ccc(/C=C/c2ccc(N(c3ccccc3)c3ccccc3)cc2)c2nsnc12)/c1ccc(N(c2ccccc2)c2ccccc2)cc1 | 0.0 |
| O=[N+]([O-])c1ccc2c(ccc3[n+]2[B-](F)(F)n2c-3cc3c4ccccc4c4ccccc4c32)c1 | 0.0 |
| CC1=C2C=CC(C)=[N+]2[B-](F)(F)n2cccc21 | 1.0 |
| CCc1c(C)[nH]c(C2=[N+]3C(=C(C)c4c(C)c(CC)c(C)n4[B-]3(F)F)c3ccccc32)c1C | 0.0 |
| Fc1ccc(-c2nc3n(c2-c2ccncc2)CCS3)cc1 | 1.0 |

* * *

- run.description: solvent given as SMILES
- assay.conditions: in CS(C)=O
endpoint: emission maximum (nm)

| molecule | measurement.units | endpoint.value |
| --- | --- | --- |
| CCCCCN(c1ccccc1)c1ccc2c(c1)C(CC)(CC)c1cc(/C=C/c3ccc(/C=C(\C#N)C(=O)O)s3)ccc1-2 | nm | 517 |
| CN(C)c1cc(C#N)c(N(C)C)c(C#N)c1 | nm | 538.21 |
| O=C1CC(c2cccc([N+](=O)[O-])c2)c2c(c3ccccc3c3nc4ccccc4nc23)O1 (stereo unspecified) | nm | 452 |
| O=Cc1cc(C=O)c2ccc3c(N4CCCCC4)cc(N4CCCCC4)c4ccc1c2c43 | nm | 609 |
| c1ccc(C2CCN3COc4c5ccccc5c5c6c7c(c2c3c46)C(c2ccccc2)CCN7CO5)cc1 (stereo unspecified) | nm | 618 |
| CC1=CC(c2ccc3cc(N(C)C)ccc3c2)=[O+][B-](F)(F)O1 | nm | 624 |
| CCC1=C(C)C(=O)n2c1cc1[nH]c(C(=O)OC(C)(C)C)c(C)c1c2=O | nm | 483 |
| CCCCCCCCCCCCCCCCN(CCCCCCCCCCCCCCCC)c1ccc(/C=C/c2cc[n+](Cc3cc(C[n+]4ccc(/C=C/c5ccc(N(CCCCCCCCCCCCCCCC)CCCCCCCCCCCCCCCC)cc5)cc4)cc(C[n+]4ccc(/C=C/c5ccc(N(CCCCCCCCCCCCCCCC)CCCCCCCCCCCCCCCC)cc5)cc4)c3)cc2)cc1 | nm | 615 |
| O=C1/C(=C\c2ccc(N(c3ccccc3)c3ccccc3)cc2)S(=O)(=O)c2ccccc21 | nm | 553 |
| Nc1c(-c2nn([C@H]3C[C@H](O)[C@@H](CO)O3)c3ncnc(N)c23)ccc2ccccc12 | nm | 450 |
| CCCCN(c1ccccc1)c1ccc2c(c1)C(CC)(CC)c1cc(/C=C/c3ccc(/C=C(\C#N)C(=O)O)s3)ccc1-2 | nm | 520 |

* * *

Below, each entry is listed alongside its reported emission maximum.
- run.description: solvent given as SMILES
- assay.conditions: in ClCCl

| structure.string | measurement.units | emission maximum |
| --- | --- | --- |
| CC(=O)c1cc(=O)n(C)c2cc(-c3ccc(N(C)C)cc3)sc12 | nm | 610 |
| CN(C)c1ccc(-c2c(/C=C3/C=Cc4ccccc4N3C)c(=O)c2=O)cc1 | nm | 588 |
| Cc1cc(C)n2c1C=C1c3ccccc3C(c3cccn3C)=[N+]1[B-]2(F)F | nm | 611 |
| CC(C)[Si](C#Cc1c2ccccc2c(C#C[Si](C(C)C)(C(C)C)C(C)C)c2nc3cc4c(cc3nc12)C1c2ccccc2C4c2ccccc21)(C(C)C)C(C)C | nm | 593 |

Attribution: the Deep4Chem optical property database
